// data source = ChEMBL document CHEMBL4007493

Notes on EC50 obtained with D(2) dopamine receptor (Homo sapiens, UniProt P14416).
Sequence (P14416 whole entry): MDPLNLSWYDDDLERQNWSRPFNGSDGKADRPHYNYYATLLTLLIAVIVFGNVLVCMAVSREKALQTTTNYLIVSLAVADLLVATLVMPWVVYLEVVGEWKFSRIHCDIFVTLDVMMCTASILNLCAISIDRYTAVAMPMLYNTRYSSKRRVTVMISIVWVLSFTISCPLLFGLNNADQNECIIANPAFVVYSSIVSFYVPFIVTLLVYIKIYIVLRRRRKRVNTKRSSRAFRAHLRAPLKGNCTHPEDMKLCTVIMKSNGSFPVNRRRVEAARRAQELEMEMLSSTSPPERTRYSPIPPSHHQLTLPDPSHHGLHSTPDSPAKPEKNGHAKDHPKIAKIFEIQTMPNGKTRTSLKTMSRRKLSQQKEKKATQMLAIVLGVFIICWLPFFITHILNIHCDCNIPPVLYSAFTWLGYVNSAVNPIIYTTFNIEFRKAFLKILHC
Numeric only. Scale: nM

Here's what some known entries look like.
[[record]]
chemical_string = "CN[C@@H]1Cc2cccc3c2n(c(=O)n3CCCCCCCCCCCCOc2ccc3c(c2)NC(=O)CC3)C1"
meas_value = 570

[[record]]
chemical_string = "CCCN(CCC)[C@@H]1Cc2cccc3c2n(c(=O)n3CCCCNC(=O)c2cc3ccccc3[nH]2)C1"
meas_value = 185


Query: Would you kindly share the measured EC50 for `CN(CCCCOc1ccc2c(c1)NC(=O)CC2)[C@@H]1Cc2cccc3[nH]c(=O)n(c23)C1` ?
Response: 189

Query: For the molecule shown here, `CN[C@@H]1Cc2cccc3c2n(c(=O)n3CCOCCOCCOCCCCc2ccccc2)C1` , give the reported EC50.
Response: 678

Query: Entry `CN[C@@H]1Cc2cccc3c2n(c(=O)n3CCOCCOCCCCc2ccccc2)C1` : reported EC50 = ?
Response: 1850

Query: EC50; subject: `CN[C@@H]1Cc2cccc3c2n(c(=O)n3CCCCOc2ccc3c(c2)NC(=O)CC3)C1`
Response: 713

Query: Entry `CN[C@@H]1Cc2cccc3c2n(c(=O)n3CCOCCOCCOCCOc2ccc3c(c2)NC(=O)CC3)C1` : reported EC50 = ?
Response: 3980

Query: I would be grateful if you could share the reported EC50 for `CCCN(CCC)[C@@H]1Cc2cccc3c2n(c(=O)n3CCC)C1` .
Response: 16.8

Query: Need EC50, item `CCCN(CCCCNC(=O)c1cc2ccccc2[nH]1)[C@@H]1Cc2cccc3c2n(c(=O)n3CCC)C1`
Response: 1150

Query: Requested field: EC50. Item: `CCCN[C@@H]1Cc2cccc3c2n(c(=O)n3CCCCOCCCCc2ccccc2)C1`
Response: 194
